Test system: human hepatocytes
Test: Assay D: metabolic stability in human hepatocytes
Type: in vitro ADME
property-name: metabolic stability in human hepatocytes (in words)

| compound | result |
| --- | --- |
| CC(C)(NC(=O)c1ccc(Cl)s1)C(=O)Nc1ccc(Cl)c(F)c1 [Example 3] | metabolically stable |
| CC(C)(NC(=O)c1ccc(Cl)s1)C(=O)Nc1ccc(Br)cc1 [Example 4] | metabolically stable |

====

Biological target: MDR1 (P-gp) (Homo sapiens (Human), UniProt P08183)
Sequence (P08183 whole entry): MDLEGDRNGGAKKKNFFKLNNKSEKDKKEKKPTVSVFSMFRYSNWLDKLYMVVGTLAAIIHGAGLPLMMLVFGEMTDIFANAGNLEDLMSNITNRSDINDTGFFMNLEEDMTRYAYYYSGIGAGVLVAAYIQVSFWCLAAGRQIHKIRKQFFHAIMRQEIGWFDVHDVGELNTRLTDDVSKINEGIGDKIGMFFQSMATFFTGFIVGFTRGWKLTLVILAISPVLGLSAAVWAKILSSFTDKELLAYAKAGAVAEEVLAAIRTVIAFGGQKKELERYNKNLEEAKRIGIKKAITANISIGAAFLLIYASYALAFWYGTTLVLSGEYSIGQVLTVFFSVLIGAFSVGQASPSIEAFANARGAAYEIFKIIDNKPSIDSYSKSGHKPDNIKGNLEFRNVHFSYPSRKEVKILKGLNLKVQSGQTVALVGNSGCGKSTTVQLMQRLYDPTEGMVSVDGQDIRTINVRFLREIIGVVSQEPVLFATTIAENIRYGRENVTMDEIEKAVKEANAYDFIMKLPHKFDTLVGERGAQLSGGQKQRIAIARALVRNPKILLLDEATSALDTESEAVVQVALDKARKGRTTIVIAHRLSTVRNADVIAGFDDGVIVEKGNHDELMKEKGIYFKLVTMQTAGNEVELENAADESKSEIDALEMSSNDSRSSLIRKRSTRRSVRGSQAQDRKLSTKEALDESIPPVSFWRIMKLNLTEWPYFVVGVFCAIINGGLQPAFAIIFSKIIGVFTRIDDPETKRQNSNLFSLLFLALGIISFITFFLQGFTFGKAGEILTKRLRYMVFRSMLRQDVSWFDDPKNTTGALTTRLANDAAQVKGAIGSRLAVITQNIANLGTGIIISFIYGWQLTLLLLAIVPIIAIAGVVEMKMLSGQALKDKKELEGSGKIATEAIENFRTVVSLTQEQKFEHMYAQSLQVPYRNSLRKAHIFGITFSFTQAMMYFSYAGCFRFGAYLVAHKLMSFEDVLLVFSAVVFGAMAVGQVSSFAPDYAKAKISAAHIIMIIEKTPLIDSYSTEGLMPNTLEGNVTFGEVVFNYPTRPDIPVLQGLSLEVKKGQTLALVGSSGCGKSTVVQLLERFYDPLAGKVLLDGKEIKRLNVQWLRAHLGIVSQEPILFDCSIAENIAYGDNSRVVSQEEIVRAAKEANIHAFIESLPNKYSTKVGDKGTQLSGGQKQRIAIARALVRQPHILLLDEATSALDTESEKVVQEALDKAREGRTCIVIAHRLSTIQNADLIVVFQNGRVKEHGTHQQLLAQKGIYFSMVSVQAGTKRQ
Test: Assay E: MDCK assay MDR-1 (P-gp)
Assay type: in vitro ADME
Conditions: human, pH 7.4; MDCK-MDR1 monolayers, final test concentration 10 μM; mean +− standard deviation; read-out: Efflux ratio Assay E
property-name: efflux ratio at 2 h, 10 μM
// return just the number, without any unit appended

| compound | quantitative-result |
| --- | --- |
| Cc1cc(NC(=O)C(C)(C)NC(=O)c2ccc(Cl)s2)ccc1C(=O)N1CCCC1 [WO2005/111014 Ex. 4] | 5.7 |

Please give the measured efflux ratio at 2 h, 10 μM for this compound: C#Cc1ccc(C(=O)NC(C)(C(=O)Nc2ccc(N3CCOCC3=O)c(C)c2)C(F)(F)F)s1 (centres unmarked)
32

====

The entries below come with measured Selectivity Assay B/Assay A values attached.
Target: UniProtKB P10275
Assay: Assay B: human androgen receptor luciferase reporter assay (Indigo Biosciences)
Type: cell-based
Conditions: ratio IC50 androgen receptor / IC50 IDO1
Source text: Assay B. In Vitro Testing of Androgen Receptor Potency: The human androgen receptor (AR) assay was run using Product #IB03001 from Indigo Biosciences. The cell line provided in this kit carries a reporter gene, induced upon AR stimulation. This reporter gene is cDNA encoding for beetle luciferase, a 62 kD protein originating from the North American firefly (Photinus pyralis). […] The luminescence intensity of the reaction is quantified using a luminometer. […]

Use these answered entries as a reference point.
| chemical-structure | measured-target | result |
| --- | --- | --- |
| CC(C)(NC(=O)c1ccc(Cl)s1)C(=O)Nc1ccc(Cl)cc1 | UniProtKB P10275 | >58 |
| CC(C)(NC(=O)c1ccc(Br)s1)C(=O)Nc1ccc(Cl)c(F)c1 | UniProtKB P10275 | 43 |
| CC(C)(NC(=O)c1cccs1)C(=O)Nc1ccc(C#N)c(C(F)(F)F)c1 | UniProtKB P10275 | 0.7 |

Look up Selectivity Assay B/Assay A: `Cc1ccc(C(=O)NC(C)(C)C(=O)Nc2ccc(C#N)c(C(F)(F)F)c2)s1`
4.9

So what's the measured Selectivity Assay B/Assay A for this one? `CC(C)(NC(=O)c1ccc(Cl)s1)C(=O)Nc1ccc(Br)cc1`
>42

// lookup Selectivity Assay B/Assay A for `CC(C)(NC(=O)c1ccc(Br)s1)C(=O)Nc1ccc(Br)cc1`
>52

Would you kindly share the measured Selectivity Assay B/Assay A for `CC(C)(NC(=O)c1ccc(Cl)s1)C(=O)Nc1ccc(Cl)c(F)c1` ?
33

====

IC50 values, listed per item
Molecular target: human androgen receptor (Homo sapiens (Human))
Sequence (P10275 whole entry): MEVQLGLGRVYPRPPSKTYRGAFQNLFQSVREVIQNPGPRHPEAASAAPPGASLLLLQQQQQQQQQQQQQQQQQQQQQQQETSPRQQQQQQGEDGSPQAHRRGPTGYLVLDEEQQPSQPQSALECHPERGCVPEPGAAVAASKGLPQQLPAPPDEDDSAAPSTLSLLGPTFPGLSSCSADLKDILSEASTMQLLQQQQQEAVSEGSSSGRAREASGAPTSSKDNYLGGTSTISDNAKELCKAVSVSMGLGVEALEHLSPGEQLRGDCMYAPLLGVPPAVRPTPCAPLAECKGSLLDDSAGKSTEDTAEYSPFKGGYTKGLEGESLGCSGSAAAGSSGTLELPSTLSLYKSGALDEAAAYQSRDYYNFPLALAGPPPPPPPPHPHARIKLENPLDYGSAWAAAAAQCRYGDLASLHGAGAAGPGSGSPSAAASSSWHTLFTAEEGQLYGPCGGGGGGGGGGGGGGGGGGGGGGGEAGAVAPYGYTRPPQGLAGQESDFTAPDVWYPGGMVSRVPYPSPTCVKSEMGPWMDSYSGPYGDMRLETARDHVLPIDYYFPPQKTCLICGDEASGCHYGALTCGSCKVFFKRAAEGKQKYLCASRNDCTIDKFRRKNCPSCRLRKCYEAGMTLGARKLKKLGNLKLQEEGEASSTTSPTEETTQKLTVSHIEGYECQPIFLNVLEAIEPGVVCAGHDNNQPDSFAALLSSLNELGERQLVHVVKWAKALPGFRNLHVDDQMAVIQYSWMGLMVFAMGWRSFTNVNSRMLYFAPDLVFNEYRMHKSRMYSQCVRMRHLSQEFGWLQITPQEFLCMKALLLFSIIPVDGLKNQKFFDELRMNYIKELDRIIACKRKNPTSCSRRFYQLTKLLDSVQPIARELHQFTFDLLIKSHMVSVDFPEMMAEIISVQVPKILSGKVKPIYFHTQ
Assay: Assay B: human androgen receptor luciferase reporter assay (Indigo Biosciences)
Details: challenge with 125 pM (EC80) 6a-Fl Testosterone; mean +− standard deviation

Some solved entries appear below for comparison.
| molecule | IC50 |
| --- | --- |
| CC(C)(NC(=O)c1ccc(Cl)s1)C(=O)Nc1ccc(Cl)cc1 [Example 5] | > 10 µM |
| CC(C)(NC(=O)c1ccc(Br)s1)C(=O)Nc1ccc(Br)cc1 [Example 2] | > 10 µM |

Then this molecule:
Item CC(C)(NC(=O)c1ccc(Cl)s1)C(=O)Nc1ccc(Br)cc1 [Example 4] has what recorded IC50?
> 10 µM

====

// values below are pIC50; system is human Factor Xa (Homo sapiens (Human))
Sequence (P00742 235-488): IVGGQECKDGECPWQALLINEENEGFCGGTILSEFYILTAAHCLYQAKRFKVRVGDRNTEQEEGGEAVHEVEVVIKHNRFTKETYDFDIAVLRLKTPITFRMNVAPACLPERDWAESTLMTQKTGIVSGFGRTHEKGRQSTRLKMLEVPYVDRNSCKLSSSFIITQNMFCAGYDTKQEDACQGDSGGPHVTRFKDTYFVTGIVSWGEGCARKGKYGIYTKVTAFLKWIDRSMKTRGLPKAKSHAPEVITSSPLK
Sequence (P00742 41-179 partner): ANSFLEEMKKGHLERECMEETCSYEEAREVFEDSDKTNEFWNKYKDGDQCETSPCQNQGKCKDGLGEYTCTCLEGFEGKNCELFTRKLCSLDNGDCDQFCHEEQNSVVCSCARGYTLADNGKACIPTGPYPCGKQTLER
// field semantics: pIC50 = negative decimal log of concentration (mol/L)

| molecule | pIC50 |
| --- | --- |
| Cc1cc(NC(=O)C(C)(C)NC(=O)c2ccc(Cl)s2)ccc1C(=O)N1CCCC1 | 8.10 |
| CC1CCC(C)N1c1ccc(NC(=O)C(C)(C)NC(=O)c2ccc(Cl)s2)cc1 (centres unmarked) | 6.37 |
| Cc1cc(NC(=O)C(C)(C)NC(=O)c2ccc(Cl)s2)ccc1N1CCOCC1=O | 7.40 |
| CC(C)(NC(=O)c1ccc(Br)s1)C(=O)Nc1ccc(N2CCOCC2=O)c(Cl)c1 | 7.59 |

Pending molecule:
Query the reported pIC50 for human Factor Xa (Homo sapiens (Human)); item: C#Cc1ccc(C(=O)NC(C)(C(=O)Nc2ccc(N3CCOCC3=O)c(C)c2)C(F)(F)F)s1 (centres unmarked)
7.32

====

Target: MDR1 (P-gp) (Homo sapiens (Human), UniProt P08183)
Assay: Assay E: MDCK assay MDR-1 (P-gp)
Assay type: in vitro ADME
Conditions: human, MDCK-MDR1, pH 7.4; Table 7; final test concentration 10 μM; read-out: MDCK-MDR1 efflux ratio (Assay E)
Quick list: efflux ratio at 2 h, 10 μM per entry.

The examples below pair each entry with its known result.
| chemical-structure | measured-target | efflux ratio at 2 h, 10 μM |
| --- | --- | --- |
| CC(C)(NC(=O)c1ccc(Cl)s1)C(=O)Nc1ccc(Br)cc1 | MDR1 (P-gp) (Homo sapiens (Human), UniProt P08183) | 0.5 |
| CC(=O)N1CCc2ccc(NC(=O)C(C)(C)NC(=O)c3ccc(Cl)s3)cc2CC1 | MDR1 (P-gp) (Homo sapiens (Human), UniProt P08183) | 7.6 |
| CC(C)(NC(=O)c1ccc(Cl)s1)C(=O)Nc1ncc2c(n1)CCN(Cc1ccccc1)CC2 | MDR1 (P-gp) (Homo sapiens (Human), UniProt P08183) | 1.8 |
| CC(C)(NC(=O)c1ccc(Cl)s1)C(=O)Nc1ccc2c(c1)CCN(C(=O)C(F)(F)F)CC2 | MDR1 (P-gp) (Homo sapiens (Human), UniProt P08183) | 1 |

Continue with the compound presented below.
Look up efflux ratio at 2 h, 10 μM: `CC(C)(NC(=O)c1ccc(Cl)s1)C(=O)Nc1ccc(Cl)c(F)c1`
0.5

====

Molecular target: UniProtKB P00742
Test: Assay C: human Factor Xa chromogenic substrate assay
Format: biochemical
Conditions: ratio IC50 Factor Xa / IC50 IDO1
property-name: Selectivity Assay C/Assay A
The answer should be a number; do not append a unit.

| molecule | quantitative-result |
| --- | --- |
| Cc1cc(NC(=O)C(C)(C)NC(=O)c2ccc(Cl)s2)ccc1N1CCOCC1=O [WO2005/111029 Ex. 8] | 0.01 |

Read the next record carefully.
Given the molecule Cc1cc(NC(=O)C(C)(C)NC(=O)c2ccc(Cl)s2)ccc1C(=O)N1CCCC1 [WO2005/111014 Ex. 4] , what is its reported Selectivity Assay C/Assay A?
0.03

====

Assay: Assay F: tissue distribution in rat after oral application
Format: in vivo
Conditions: oral 10 μmol/kg, muscle/brain tissue distribution
Recorded in vivo efflux (Assay F) values for a group of compounds are listed next.

Would you please look over these solved cases?
| compound | property-name | result |
| --- | --- | --- |
| CC(C)(NC(=O)c1ccc(Cl)s1)C(=O)Nc1ncc2c(n1)CCN(Cc1ccccc1)CC2 [WO2007/003536 Ex. 159] | in vivo efflux (Assay F) | 6.2 (rat) |
| CC(C)(NC(=O)c1ccc(Cl)s1)C(=O)Nc1ccc(Br)cc1 [Example 4] | in vivo efflux (Assay F) | 0.50 (rat) |
| CC(=O)N1CCc2ccc(NC(=O)C(C)(C)NC(=O)c3ccc(Cl)s3)cc2CC1 [WO2007/003536 Ex. 6] | in vivo efflux (Assay F) | 12.6 (rat) |

Could you now look at the following compound, please?
So what's the measured in vivo efflux (Assay F) for this one? CC(C)(NC(=O)c1ccc(Cl)s1)C(=O)Nc1ccc2c(c1)CCN(C(=O)C(F)(F)F)CC2 [WO2007/003536 Ex. 4]
3.3 (rat)

====

Molecular target: MDR1 (P-gp) (Homo sapiens (Human))
Assay: Assay E: MDCK assay MDR-1 (P-gp)
Format: in vitro ADME

| compound | measured-target | in vitro efflux, MDCK-MDR1 (in words) |
| --- | --- | --- |
| Cc1cc(NC(=O)C(C)(C)NC(=O)c2ccc(Cl)s2)ccc1N1CCOCC1=O [WO2005/111029 Ex. 8] | MDR1 (P-gp) (Homo sapiens (Human)) | high efflux |
| Cc1cc(NC(=O)C(C)(C)NC(=O)c2ccc(Cl)s2)ccc1C(=O)N1CCCC1 [WO2005/111014 Ex. 4] | MDR1 (P-gp) (Homo sapiens (Human)) | high efflux |
| CC(C)(NC(=O)c1ccc(Br)s1)C(=O)Nc1ccc(N2CCOCC2=O)c(Cl)c1 [WO2005/111029 Ex. 28] | MDR1 (P-gp) (Homo sapiens (Human)) | high efflux |
